# Assay target: α2-receptor
# Assay text: 3H-Clonidine Binding: α2-Receptor
# Details: 3 nM 3H-clonidine, rat cortical tissue, pH 7.7
pIC50: −log10 of the molar value.
Reported values of pIC50 for individual entries
Observable: pIC50

INSERT INTO assay_data (compound, value_measured) VALUES
  ('Cn1c2c(c3cc(O)ccc31)CCC2=NCc1ccccc1', 6.07),
  ('CN(C)CCC=C1c2ccccc2CCc2ccccc21 [Amitriptyline, reference compound]', 5.41),
  ('Cn1c2c(c3ccccc31)CCC2N (stereo not drawn)', 5.83);

---

# Assay target: MAO-B (Rattus norvegicus)
# Construct: served as the tissue source for mitochondrial MAO; from tissue; host or cells: whole brain minus cerebellum of male Wistar rats, P2 pellet (18,000 g)
# Sequence (P19643 whole entry): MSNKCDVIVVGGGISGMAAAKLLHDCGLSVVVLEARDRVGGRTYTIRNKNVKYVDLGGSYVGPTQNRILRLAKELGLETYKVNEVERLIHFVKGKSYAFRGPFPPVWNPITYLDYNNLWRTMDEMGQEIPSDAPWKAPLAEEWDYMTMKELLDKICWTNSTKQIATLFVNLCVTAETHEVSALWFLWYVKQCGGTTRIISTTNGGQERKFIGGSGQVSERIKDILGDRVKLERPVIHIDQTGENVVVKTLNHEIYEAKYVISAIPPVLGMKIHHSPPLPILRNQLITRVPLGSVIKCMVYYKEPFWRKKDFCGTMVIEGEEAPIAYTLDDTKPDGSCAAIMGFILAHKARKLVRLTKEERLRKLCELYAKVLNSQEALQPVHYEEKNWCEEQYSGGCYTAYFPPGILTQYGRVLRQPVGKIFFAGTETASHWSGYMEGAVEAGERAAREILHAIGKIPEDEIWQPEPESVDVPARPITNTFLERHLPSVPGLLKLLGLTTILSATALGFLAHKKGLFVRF
# Assay text: biochemical
# Set-up: species or system rat (male Wistar)
# Details: substrate [14C]-PEA, 200 μM; read-out: Inhibitory Concentration - IC50, MAO-B
Observable: IC50

INSERT INTO results (compound, observable, value_measured) VALUES
  ('C#CCNC1CCc2c1[nH]c1ccccc21 (stereo not shown)', 'IC50', '0.32 µM');
